Source: patent US4543353A

Assay: orientative acute toxicity, LD50, single oral administration
Settings: mouse, in vivo, mice, nine hours food deprived, assessed on the seventh day
measuredProperty: LD50 at 168 h

Q: Need LD50 at 168 h of `CCOCCOC(=O)CCC/C=C\C[C@@H]1[C@@H](C#C[C@@H](O)CCCCC2CCCCC2)[C@H](O)C[C@@H]1O` , thanks.
Result: > 3000 mg/kg
